Origin of the recorded values: PubChem BioAssay (NCI)

# Tested on: CCRF-CEM leukemia
# procedureDetails: NCI tumour cell line growth inhibition, 48 h
metricName: TGI

Answered examples (8):
compound=N#CCCN1C/C(=C/c2ccc(Cl)cc2)C(=O)/C(=C/c2ccc(Cl)cc2)C1 metricname=TGI assayvalue="2.88 µM"
compound=CC(C)(O)CNc1nc(Nc2ccnc(C(F)(F)F)c2)nc(-c2cccc(C(F)(F)F)n2)n1 metricname=TGI assayvalue="73.9 µM"
compound="CC(C)=CCN1CC(C)C(=O)Nc2ccccc21 (centres undefined)" metricname=TGI assayvalue="> 100 µM"
compound=CSC(=S)Nc1cccc(C)n1 metricname=TGI assayvalue="> 100 µM"
compound=CC1(C)CC(=O)C(/C(=N/NC(=S)NN)C(=O)Nc2nc3ccc([N+](=O)[O-])cc3s2)C(=O)C1 metricname=TGI assayvalue="> 100 µM"
compound="CC12C=CC(=O)C=C1CCC1C3CCC(O)(C(=O)CO)C3(C)CC(O)C12F (centres undefined)" metricname=TGI assayvalue="> 100 µM"
compound=O=C(/C=C/c1ccccc1)Oc1ccc(C(=O)/C=C/c2ccc(Cl)cc2)cc1 metricname=TGI assayvalue="> 100 µM"
compound=COc1ccc(-c2cc(C(=O)Nc3ccc(C)c(C)c3)nc(NC#N)n2)cc1 metricname=TGI assayvalue="> 100 µM"

Batch request: TGI for each of the following compounds.
1. CSc1nc2sc3c(c2c(=O)n1-c1ccc(C(C)C)cc1)CCC(=O)C3
2. COc1cc(O)c2c(=O)c(O)c(-c3ccc(O)c(OC)c3)oc2c1
3. COC(=O)CCCCC(=O)c1c(C)[nH]c(/C=C2\N=C(c3ccc[nH]3)C=C2OC)c1C
4. Nc1nc(Nc2ccccc2)c2[nH]cnc2n1
5. Nc1ccc2c(c1)nc1n2C(c2c(F)cccc2F)SC1 (centres undefined)
6. CCOC(=O)c1c(C)n(-c2ccc(Cl)cc2)c2c1cc(O)c1[nH]c3c(c12)CCCC3

[out]
1: 6.42 µM; 2: > 21.9 µM; 3: 2.32 µM; 4: > 100 µM; 5: > 100 µM; 6: > 100 µM

====

# Tested on: MALME-3M melanoma
# procedureDetails: NCI tumour cell line growth inhibition, 48 h
metricName: TGI

# example entries with known answers
molecule="Nc1ccc2c(c1)nc1n2C(c2c(F)cccc2F)SC1 (stereo not given)" targetsystem="MALME-3M melanoma" assayvalue="> 100 µM"
molecule=CCOC(=O)C1(F)S(=O)(=O)OCCOS1(=O)=O targetsystem="MALME-3M melanoma" assayvalue="> 100 µM"
molecule="CC1CN=C(N(Cc2ccccc2)C(=O)Nc2ccc(Cl)c(Cl)c2)S1 (stereo not given)" targetsystem="MALME-3M melanoma" assayvalue="> 100 µM"
molecule="N#Cc1c2c(c(N)oc1=O)C(c1ccccc1)CC(=O)N2 (stereo not given)" targetsystem="MALME-3M melanoma" assayvalue="> 100 µM"
molecule="COc1ccc(Oc2cccc(C3C4C(=O)N(c5ccc(C)c(Cl)c5)C(=O)C4ON3C(C(N)=O)c3ccccc3)c2)cc1 (stereo not given)" targetsystem="MALME-3M melanoma" assayvalue="> 50 µM"
molecule="COC(=O)c1cc2c(cc1Cl)SC1=NN(C)C(N(C)C)N1S2(=O)=O (stereo not given)" targetsystem="MALME-3M melanoma" assayvalue="> 100 µM"

Go through the list and state TGI for each entry.
1. Cc1ccc(/C(C#N)=C/c2cccc([N+](=O)[O-])c2)cc1
2. N#CC1=C(/N=C/c2ccccc2)Oc2c(ccc3ccccc23)C1c1ccccc1 (stereo not given)
3. COC(=O)[C@@]1(C(C)CC(=O)O)CCCCC1=O (stereo not given in full)
4. C(=N/N(Cc1ccccc1)Cc1ccccc1)/c1ccccc1
5. CC(C)(C)C1=CC(C)(n2[nH]c(=O)n(-c3ccccc3)c2=O)C=C(C(C)(C)C)C1=O
6. N#Cc1nc(-c2ccco2)oc1N
7. NNC(=O)c1c(-c2cccnc2)cnc2ccccc12
8. NC(=O)C(=O)C1CCC2=C(Sc3ccccc3N2)C1=O (stereo not given)

[out]
1. > 100 µM
2. > 100 µM
3. > 100 µM
4. > 100 µM
5. > 100 µM
6. > 10 µM
7. > 100 µM
8. > 100 µM

[in] Fill in the blank: the reported TGI of C/C(=N/N=C(\[O-])c1ccncc1)C(F)(F)F.C/C(=N\N=C(/[O-])c1ccncc1)C(F)(F)F.[Ni+2] is ____.
[out] > 1 µM

====

Field: TGI. Provide a value for each of the compounds that follow.
# System: NCI-H460 lung
# procedureDetails: NCI tumour cell line growth inhibition, 48 h

The following compounds have reported results that may help.
compound="O=[N+]([O-])c1ccc(OC2CC3C4C=CC3C2C4)c([N+](=O)[O-])c1 (centres undefined)" assayvalue="> 100 µM"
compound=N#Cc1nc(-c2ccco2)oc1N assayvalue="> 10 µM"
compound=Cn1c(-c2ccccc2)cc(-c2cccs2)c1-c1cccs1 assayvalue="> 100 µM"

Hi, could you look up TGI for each item in my list?
1. NC1CC(=O)c2c1sc(Cl)c2Cl (centres undefined)
2. O=C(CCC1C(=O)NC(=S)NC1=O)c1ccc2ccccc2c1
3. O=C(NC1CCN(Cc2ccccc2)CC1)c1ccc(I)cc1
4. Nc1ccc2c(c1)nc1n2C(c2c(F)cccc2F)SC1 (centres undefined)
5. CCc1c(C)c(C#N)c(=S)n(C2OC(COC(C)=O)C(OC(C)=O)C(OC(C)=O)C2OC(C)=O)c1-c1ccccc1 (centres undefined)
6. CC1=C(CC(=O)c2cccc([N+](=O)[O-])c2)C(=O)c2ccccc2C1=O

[out]
1: > 100 µM; 2: > 100 µM; 3: > 100 µM; 4: > 100 µM; 5: > 31.6 µM; 6: > 100 µM

====

# Test system: CCRF-CEM leukemia
# procedureDetails: NCI tumour cell line growth inhibition, 48 h
metricName: TGI (µM)
One number for each entry, in µM.

chemicalstructure=Cc1nc2ccc(C(F)(F)F)cc2nc1NCc1ccc(Cl)c(Cl)c1 metricname=TGI measurementunits=µM assayvalue=36.6

Go through the list and state TGI for each entry.
1. COC(=O)[C@]1(NC(=O)c2ccccc2)C[C@H]1C=O
2. CCOC(=O)c1sc2nc(SC)nc3c2c1NCN3c1ccc2c(c1)OCO2

[out]
1. 51.5
2. 32.9

[in] Requested field: TGI. Item: Oc1cccc2ccc(N/N=C/c3cc(CN4CCOCC4)c(O)c4ncccc34)nc12
[out] 9.95

====

Give TGI for every item shown.
# Test system: CCRF-CEM leukemia
# procedureDetails: NCI tumour cell line growth inhibition, 48 h

Check out these entries, answers already filled in.
compound=c1ccc2c(c1)Nc1ccncc1S2 assayvalue="> 100 µM"
compound=CC1=NN(c2nc(N)nc(/C(C#N)=C\c3csc([N+](=O)[O-])c3)n2)C(C)(C)C1 assayvalue="> 100 µM"
compound=O=c1[nH]c(=S)nc2nc3c4ccc[nH]c4c4ccccc4c3nc12 assayvalue="> 100 µM"
compound=Cc1ccc2nc(N/N=C/c3sccc3C)cc(C)c2c1 assayvalue="> 100 µM"
compound=C/C(=N/N=C(\[O-])c1ccncc1)C(F)(F)F.C/C(=N\N=C(/[O-])c1ccncc1)C(F)(F)F.[Ni+2] assayvalue="> 1 µM"

Shift focus to the following entry.
[in] Could you share what TGI was measured for COC(=O)[C@@]1(C(C)CC(=O)O)CCCCC1=O (stereo partly specified) , tested on CCRF-CEM leukemia?
[out] > 100 µM
